List of IC50 values.
Target: Recombinant human Bcl-2 protein (Homo sapiens (Human), UniProt P10415)
Assay: Bcl-2 TR-FRET Assay
Assay type: binding
Conditions: Bcl-2 wild type, TR-FRET; read-out: Biochemical assay (IC50, nM) Bcl-2 WT
Give the figure together with its unit, number first.

Please review the following examples before continuing.
COMPOUND	IC50
COc1ccc(CN2CCN(C3CC4(CCN(c5ccc(C(=O)NS(=O)(=O)c6ccc(NC[C@H]7CC[C@](C)(O)CC7)c([N+](=O)[O-])c6)c(Oc6cnc7[nH]cc(F)c7c6)c5)CC4)C3)C(c3ccccc3C(C)C)C2)cc1OC(F)F (stereo partly shown) [Example 159]	0.12 nM
CC(C)c1ccccc1C1CN(Cc2ccc(OC(F)(F)F)cc2)CCN1C1CC2(CCN(c3ccc(C(=O)NS(=O)(=O)c4ccc(NC[C@H]5CC[C@](C)(O)CC5)c([N+](=O)[O-])c4)c(Oc4cnc5[nH]ccc5c4)c3)CC2)C1 (stereo partly shown) [Example 39]	1.1 nM
COc1cc(CN2CCN(C3CC4(CCN(c5ccc(C(=O)NS(=O)(=O)c6ccc(NC[C@H]7CC[C@](C)(O)CC7)c([N+](=O)[O-])c6)c(Oc6cnc7[nH]ccc7c6)c5)CC4)C3)C(c3ccccc3C(C)C)C2)cc(F)c1OC (stereo partly shown) [Example 152]	0.25 nM

Alright, here's another compound for you.
// query IC50 value for entry CC(C)c1ccccc1[C@H]1CN(C(C)C)CCN1C1CC2(CCN(c3ccc(C(=O)NS(=O)(=O)c4ccc(NC[C@H]5CC[C@](C)(O)CC5)c([N+](=O)[O-])c4)c(Oc4cnc5[nH]ccc5c4)c3)CC2)C1 (single isomer, unassigned) [Example 3b]
0.0083 nM

----------
Assay: Metabolic Stability Study, liver microsome incubation (human)
Format: in vitro ADME
Settings: human liver microsomes 0.5 mg/mL, 1 μM compound, NADPH; NA^# = very stable, beyond the detection limits; read-out: T1/2 (min) Human
Procedure: Biological Example: Metabolic Stability Study The metabolic stability of some compounds was evaluated by using the liver microsome incubation system in vitro. […] Samples were quenched at three time points (0, 30, 60 min) with organic solvent containing internal standards, and the supernatant was analyzed for parent loss via LC-MS/MS. […] The value of CLint and T1/2 of Example F132b in WO2019210818 and representative compounds of the disclosure were determined, and the results are shown in Table 5.
MEASUREMENT LABEL: half-life at 1 μM (min)
Report the value in min with no unit label.

MOLECULE	half-life at 1 μM [min]
CC(C)c1ccccc1C1CC(Cc2ccccc2)CCN1C1CC2(CCN(c3ccc(C(=O)NS(=O)(=O)c4ccc(NC[C@H]5CC[C@](C)(O)CC5)c([N+](=O)[O-])c4)c(Oc4cnc5[nH]ccc5c4)c3)CC2)C1 (some centres unmarked)	309

Continue with the molecule presented below.
Quick one: half-life at 1 μM of COc1cc(CN2CCN(C3CC4(CCN(c5ccc(C(=O)NS(=O)(=O)c6ccc(NC[C@H]7CC[C@](C)(O)CC7)c([N+](=O)[O-])c6)c(Oc6cnc7[nH]ccc7c6)c5)CC4)C3)C(c3ccccc3C(C)C)C2)cc(OC)c1 (some centres unmarked) ?
93.4

----------
Target: recombinant human Bcl-2-G101V protein (Homo sapiens (Human), UniProt P10415, G101V)
Assay: Bcl-2-G101V TR-FRET Assay
Format: binding
Settings: Bcl-2 G101V mutant, TR-FRET; read-out: Biochemical assay (IC50, nM) Bcl-2 G101V
MEASUREMENT LABEL: IC50 (nM)
# value in nM; strip the unit string

Field: example entries. Status: answers known.
MOLECULE	IC50 (nM)
COc1cc(CN2CCN(C3CC4(C3)CN(c3ccc(C(=O)NS(=O)(=O)c5ccc(NC[C@H]6CC[C@](C)(O)CC6)c([N+](=O)[O-])c5)c(Oc5cnc6[nH]cc(F)c6c5)c3)C4)[C@H](c3ccccc3C(C)C)C2)cc2cc(C)oc12 [Example 338]	1.4
COc1cc(CN2CCN(C3CC4(C3)CN(c3ccc(C(=O)NS(=O)(=O)c5ccc(NC[C@H]6CC[C@](C)(O)CC6)c([N+](=O)[O-])c5)c(Oc5cnc6[nH]ccc6c5)c3)C4)[C@H](c3ccccc3C(C)C)C2)cc2ccoc12 [Example 307]	0.43
COc1ccc(CN2CCN(C3CC4(CCN(c5ccc(C(=O)NS(=O)(=O)c6ccc(NC[C@H]7CC[C@](C)(O)CC7)c([N+](=O)[O-])c6)c(Oc6cnc7[nH]ccc7c6)c5)CC4)C3)C(c3ccccc3C(C)C)C2)cc1F (stereo partly shown) [Example 134]	1.3

# input for lookup
Param item = COc1cc(CN2CCN(C3CC4(CCN(c5ccc(C(=O)NS(=O)(=O)c6ccc(NC[C@H]7CC[C@](C)(O)CC7)c([N+](=O)[O-])c6)c(Oc6cnc7[nH]ccc7c6)c5)CC4)C3)C(c3ccccc3C(C)C)C2)cnc1OC (stereo partly shown) [Example 176] ; retrieve measured IC50.
0.15

----------
Target: Recombinant human Bcl-2 protein (Homo sapiens (Human), UniProt P10415)
Assay: Bcl-2 TR-FRET Assay
Format: binding
Conditions: Bcl-2 wild type, TR-FRET; read-out: Biochemical assay (IC50, nM) Bcl-2 WT
Here the recorded IC50 is given for each entry.
Please give a number only; it is taken to be in nM.

MOLECULE	MEASUREMENT LABEL	MEASUREMENT UNITS	REPORTED RESULT
COC12CC3CC(CC(CN4CCN(C5CC6(C5)CN(c5ccc(C(=O)NS(=O)(=O)c7ccc(NC[C@H]8CC[C@](C)(O)CC8)c([N+](=O)[O-])c7)c(Oc7cnc8[nH]cc(F)c8c7)c5)C6)[C@H](c5ccccc5C(C)C)C4)(C3)C1)C2 [Example 352]	IC50	nM	0.52
COc1cc(CN2CCN(C3CC4(C3)CN(c3ccc(C(=O)NS(=O)(=O)c5ccc(NC[C@H]6CC[C@](C)(O)CC6)c([N+](=O)[O-])c5)c(Oc5cnc6[nH]cc(F)c6c5)c3)C4)[C@H](c3ccccc3C(C)C)C2)cc2c1OCCCO2 [Example 335]	IC50	nM	0.06
CC(C)c1ccccc1[C@@H]1CN(Cc2ccc3c(c2)OCC3)CCN1C1CC2(CCN(c3ccc(C(=O)NS(=O)(=O)c4ccc(NC[C@H]5CC[C@](C)(O)CC5)c([N+](=O)[O-])c4)c(Oc4cnc5[nH]cc(F)c5c4)c3)CC2)C1 [Example 305]	IC50	nM	0.19
CCc1ccc(CN2CCN(C3CC4(CCN(c5ccc(C(=O)NS(=O)(=O)c6ccc(NC[C@H]7CC[C@](C)(O)CC7)c([N+](=O)[O-])c6)c(Oc6cnc7[nH]cc(F)c7c6)c5)CC4)C3)[C@H](c3ccccc3C(C)C)C2)cc1OC [Example 266]	IC50	nM	1.4

Which value of IC50 has been reported for COc1ccc(CN2CCN(C3CC4(CCN(c5ccc(C(=O)NS(=O)(=O)c6ccc(NC[C@H]7CC[C@](C)(O)CC7)c([N+](=O)[O-])c6)c(Oc6cnc7[nH]ccc7c6)c5)CC4)C3)C(c3ccccc3C3CCCC3)C2)cc1 (some centres unmarked) [Example 36] in the records?
0.58

COc1cc(CN2CCN(C3CC4(C3)CN(c3ccc(C(=O)NS(=O)(=O)c5ccc(NC[C@H]6CC[C@](C)(O)CC6)c([N+](=O)[O-])c5)c(Oc5cnc6[nH]cc(F)c6c5)c3)C4)[C@H](c3ccccc3C(C)C)C2)cc2c1OC(C)(C)CC2 [Example 337] ?
0.12

Lookup COc1ccc(CN2CCN(C3CC4(C3)CN(c3ccc(C(=O)NS(=O)(=O)c5ccc(NC[C@H]6CC[C@](C)(O)CC6)c([N+](=O)[O-])c5)c(Oc5cnc6[nH]cc(F)c6c5)c3)C4)[C@H](c3ccccc3C(C)C)C2)cc1OC1CC1 [Example 364]
0.14

Cool, now COc1ccc(CN2CCN(C3CC4(CCN(c5ccc(C(=O)NS(=O)(=O)c6ccc(NC[C@H]7CC[C@](C)(O)CC7)c([N+](=O)[O-])c6)c(Oc6cnc7[nH]ccc7c6)c5)CC4)C3)C(c3ccccc3C(C)C)C2)cc1OC(F)F (some centres unmarked) [Example 169]
0.62

----------
Tested on: RS4;11 (BCL-2 dependent acute lymphoblastic leukemia cell line)
Assay: RS4;11 Cell Proliferation Assay
Format: cell-based
Details: Homo sapiens, RS4-11, RS4;11 cells, read-out: Cellular proliferation assay (IC50, nM) RS4
MEASUREMENT LABEL: IC50

COMPOUND	STUDY SYSTEM	IC50
COc1cc(CN2CCN(C3CC4(CCN(c5ccc(C(=O)NS(=O)(=O)c6ccc(NC[C@H]7CC[C@](C)(O)CC7)c([N+](=O)[O-])c6)c(Oc6cnc7[nH]ccc7c6)c5)CC4)C3)C(c3ccccc3C(C)C)C2)cc(C)c1OC (stereo partly shown) [Example 158]	RS4;11 (BCL-2 dependent acute lymphoblastic leukemia cell line)	0.322 nM
COc1cc(CN2CCN(C3CC4(C3)CN(c3ccc(C(=O)NS(=O)(=O)c5ccc(NC[C@H]6CC[C@](C)(O)CC6)c([N+](=O)[O-])c5)c(Oc5cnc6[nH]cc(F)c6c5)c3)C4)[C@H](c3ccccc3C(C)C)C2)ccc1C(C)C [Example 269]	RS4;11 (BCL-2 dependent acute lymphoblastic leukemia cell line)	0.17 nM

GET /values?readout=IC50&item= CC(C)c1ccccc1C1CN(c2ccccc2)CCN1C1CC2(CCN(c3ccc(C(=O)NS(=O)(=O)c4ccc(NC[C@H]5CC[C@](C)(O)CC5)c([N+](=O)[O-])c4)c(Oc4cnc5[nH]ccc5c4)c3)CC2)C1 (stereo partly shown) [Example 65]
5.9 nM

Entry CC(C)c1ccccc1C1CN(Cc2cnn(C)c2)CCN1C1CC2(CCN(c3ccc(C(=O)NS(=O)(=O)c4ccc(NC[C@H]5CC[C@](C)(O)CC5)c([N+](=O)[O-])c4)c(Oc4cnc5[nH]ccc5c4)c3)CC2)C1 (single isomer, unassigned) [Example 22a] please
0.25 nM
